System Tested: MtOMPDC (wildtype OMPDC from Methanothermobacter thermautotrophicus) (Methanothermobacter thermautotrophicus, UniProt O26232)
Sequence (O26232 whole entry): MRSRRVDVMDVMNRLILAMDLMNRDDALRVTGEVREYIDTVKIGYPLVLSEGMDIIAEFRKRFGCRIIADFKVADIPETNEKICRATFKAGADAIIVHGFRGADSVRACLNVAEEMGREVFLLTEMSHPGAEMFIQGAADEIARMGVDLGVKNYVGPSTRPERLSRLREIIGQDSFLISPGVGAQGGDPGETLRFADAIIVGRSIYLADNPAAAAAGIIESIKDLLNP

# Molecule, Ki
records = [
    ("O=c1ccn([C@@H]2O[C@H](COP(=O)(O)O)[C@@H](O)[C@H]2O)c(=O)[nH]1 [UMP, uridine 5′-monophosphate]", "~100 µM"),
]
